test system: SN12C; assay: NCI tumour cell line growth inhibition, 48 h
Activity calls are given as the source filed them. No stated cut-off is given here; in the data, active = GI50 up to about 1.1 µM and inactive = higher.
reported_property: GI50

CC1=C(C(=O)CC(=O)C(=O)Nc2ccccc2C(F)(F)F)Sc2ccccc2N1    56.4 µM (inactive)
O=C(N/N=C\C(F)(F)F)c1ccncc1    92.3 µM (inactive)
O=C1NCCCc2nonc21    > 100 µM (inactive)

Item: `CC(=O)Nc1ccc(OC/C(N)=N/NC(=O)c2ccncc2)cc1` Test system: SN12C Read-out: GI50 Value: ?
> 100 µM (inactive)

Record lookup: for SN12C, what GI50 belongs to Cc1cn(C2CC(N)C(C(=O)O)O2)c(=O)[nH]c1=O (configuration not stated) ?
> 100 µM (inactive)

Recall the recorded GI50 for COc1ccc(C(=O)O/N=C2/CCCCC2CN(C)C)cc1 (configuration not stated) with SN12C and state it.
> 100 µM (inactive)

Query for SN12C: what GI50 does the record show for CC(Br)CN1CCOCC1 (configuration not stated) ?
> 100 µM (inactive)

Query GI50 on SN12C for `CC1(C)[C@H]2CC[C@]1(C)[C@H](OC(=O)NNC(=O)O[C@@H]1C[C@@H]3CC[C@@]1(C)C3(C)C)C2`
12.2 µM (inactive)

What GI50 appears in the records for this compound with SN12C? `CN(C)CN(C)c1nc(N(C)C)nc(N(C)C)n1`
> 100 µM (inactive)

----------
test system: NCI-H226; experiment: NCI tumour cell line growth inhibition, 48 h
The source made the active and inactive calls. No stated cut-off is given here; in the data, active = GI50 up to about 1.1 µM and inactive = higher.
Respond only with the outcome that fits, drawn from TRUE (active), FALSE (inactive)

Examples from the recorded data:
[N-]=[N+]=NC(CCl)c1cn([C@H]2C[C@H](O)[C@@H](CO)O2)c(=O)[nH]c1=O (stereo partly specified)    FALSE
CCOC(OC(C)=O)[C@@H]1C=C[C@H](C)N(c2ccc([N+](=O)[O-])cc2)O1 (stereo partly specified)    FALSE

Recorded test outcome, item CC(Cc1cccc2c1Nc1ccccc1S2)N(C)CCO (stereo unspecified)
FALSE

Test call, this compound: `CCOc1cc(/C=C/C=C/C=C/c2ccc(N(C)C)cc2)[s+]c2ccccc12`
FALSE

How did this test come out for `CC1(C)SCc2nc3ccccc3n21` ?
FALSE

Could you check what this test reported for `N=C(N)N/N=C(\c1ccc(F)cc1)c1ccc(C(F)(F)F)cc1` ?
TRUE

Could you kindly confirm the outcome this assay logged for COc1ccc([S+]([O-])Cc2cc(OC)c(OC)c(OC)c2)cc1 (stereo unspecified) ?
FALSE

Could you kindly confirm the outcome this assay logged for O=C1c2ccccc2CCC1C(O)(C(F)(F)F)C(F)(F)F (stereo unspecified) ?
FALSE

How did this test come out for `CN(C)S(=O)(=O)Nc1ccccn1` ?
FALSE

Tell me the recorded outcome of this test for `COc1ccc2nc(C(=O)c3ccccc3)c(C)cc2c1` .
FALSE

Could you please tell me the result logged for OC1NC2Nc3ccccc3NC2NC1O (stereo unspecified) in this assay?
FALSE

----------
Form field: GI50 (one value per entry).
system: IGROV-1; assay: NCI tumour cell line growth inhibition, 48 h
Calls of active or inactive are those of the source. Cut-off read from the data, not from the text of the source: active = GI50 up to about 1.1 µM and inactive = higher.

Below are worked cases with known answers.
CC(C)(O)C1COC2=C1C(=O)c1ccccc1C2=O (stereo unspecified)    40.6 µM (inactive)
Cc1ccc2ccc(-c3ccccc3)c3c2c1C(=O)c1ccccc1C3=O    > 100 µM (inactive)
C=C(C)CC(C(=O)O)c1ccc(C)cc1 (stereo unspecified)    > 100 µM (inactive)
CCOC(=O)NC(=O)c1cn(CCNCCO)c(=O)[nH]c1=O    > 100 µM (inactive)
[N-]=[N+]=Nc1ccc2c(c1)Sc1ccccc1N2CCCCN1CCN(C(=O)CCNC(=O)Cc2ccc(C(=O)c3ccccc3)cc2)CC1    6.1 µM (inactive)
CN1CCCOC(c2ccc(Cl)cc2)O1 (stereo unspecified)    > 100 µM (inactive)
Nc1cccc(C2CCCc3c2[nH]c2ccccc32)c1 (stereo unspecified)    17.3 µM (inactive)
CCN(CC)CCNc1c(OC)cc(C)c2sc3ccccc3c(=O)c12    7.69 µM (inactive)
O=C(CC1(O)C(=O)Nc2c(Cl)cc(Cl)cc21)c1cccc2ccccc12 (stereo unspecified)    18.6 µM (inactive)
O=S(=O)(SCc1ccccc1)C(c1ccccc1)c1ccccc1    32.7 µM (inactive)

Now consider a different compound.
Name the reported GI50 value associated with the compound `O=C1N[C@@H]([C@H]2CC[C@H](Cl)CN2)C(=O)N[C@H]1[C@H]1CC[C@H](Cl)CN1`
4.34 µM (inactive)
